Entries and their measured folding stability dG unfold follow.
test: folding stability dG unfold from chymotrypsin proteolysis; higher = more stable
Write down the numeric answer in kcal/mol and omit the unit.

INSERT INTO assay_data (macromolecule_sequence, quantity_name, unit_spec, number) VALUES
  ('SAGMVLEYEGVDEEEKLLARAEELRAELRARHPRVRVELEVEVKPTPGNKYRYRVTLTIEPLAPDEARASAG [r5_936_JUSTAS]', 'folding stability dG unfold', 'kcal/mol', 2.09),
  ('MIPLTLEYDPEKKVIRLKTPDGKPVIVEAGDKGYRVIIYDPKTGKPTVIPVTEKELLDLAKNPAFNLDLAAS [r1_18_TrMRF]', 'folding stability dG unfold', 'kcal/mol', 1.23),
  ('SAGGSAGGSAGGDEEAIKEAAAAAPKDTTTVPVLLPDGKEVTLEVTWHPDGSRTITVRQSAGGSAGGSAGGS [r10_1017_JUSTAS]', 'folding stability dG unfold', 'kcal/mol', 1.6);

Data point: SAGGKEWYIKVSIEHRNPNNGEKRELSITIPVEGMSAEEALDIARELARHLPPENVKIEVDIVPLDDSAGGS [r16_774_TrROS] ; folding stability dG unfold = 2.08

Data point: GLEVKVDITVDPVGGGTRIPVTVSVPGRPIAQATADVDPETGVVNLDLGAESEEERKAALEKLKEAGIKLGS [r1_455_JUSTAS] ; folding stability dG unfold = 1.42

* * *

test: folding stability dG unfold from chymotrypsin proteolysis; higher = more stable
Binning of folding stability dG unfold into classes: lower: < 0.5 kcal/mol; middle: ≥ 0.5 kcal/mol and < 2 kcal/mol; upper: ≥ 2 kcal/mol

INSERT INTO measurements (macromolecule_sequence, assigned_label) VALUES
  ('SAGGSAGGSAGTITILFKDPEDAIDRIKEFAQKEGYKVKIDEIEYTPNGYVWIDIDIEPPSAGGSAGGSAGG [r11_304_TrROS]', 'middle'),
  ('SAGGSAGGSAGGPEVTLRLRLEVEVRVVVLKDGKLEEKTFRFELEVEVRFEPGMSLEELSAGGSAGGSAGGS [r10_633_TrROS_Hall]', 'upper'),
  ('SAGPGAELVAEFEVELGDRGARIRIYRAPDFLIIRVDYPDGTVPVFRIDPRTGRIVEVRTFRVRPDLPLSAG [r14_676_TrMRF]', 'middle'),
  ('SAGGSAGGSEMEVKVTVEPAPAGAPPGAVVRVEVEFEDGFRITVRFTFVDGKLRAEVTEIKPVSAGGSAGGS [r12_1049_TrROS_Hall]', 'upper'),
  ('SAGGSAGPMSVKEYEFEAVVPPGEEEAWVEEYIKKEFKSKIVKIEVKREKLPDGTYRVPVKITVKESAGGSA [r15_138_JUSTAS]', 'middle'),
  ('SAGRKIEIHVPYDELRELFGPGQTAEDLADWIAQEGYQIEDIEVEPEPNPNNGKKYYRVTFEVKPPKKSAGG [r19_376_TrROS]', 'middle'),
  ('SAGGSAGGEETLRVTEITDVEKPDNGPRIKFPIEHDGKKKPIDINVPPDDLKPGDTIPLEEILKSAGGSAGG [r6_585_TrROS]', 'middle'),
  ('SAGGSAGGSAARAYTDVDPVPSTLPNGERVVRVTEAGTGTTSDVPLEALADLDRGAGVTVPPSAGGSAGGSA [r18_288_JUSTAS]', 'middle'),
  ('SAGGSAGGSASVGLLSVSTTPSGPGTTVTATTALPDGTVRTETRTEAGDGTATATTVTPLAASAGGSAGGSA [r18_79_JUSTAS]', 'lower'),
  ('SAGGSAGGSAGGSSDIVVTSETLPGPTRLVRITIPEKGETIELTLPASESIEQAVALLLSAGGSAGGSAGGS [r4_393_JUSTAS]', 'lower');

Kindly identify the class of SAGGSAKTVSIWIPDDLPNMPIEELIKEVMKAFPPGDEIKDIDVEPWPNGGYMYTFTVNGKEVIIWSAGGSA [r15_451_TrROS] .
middle

Kindly identify the class of SAGGSAGGPEVKILKVDPENNTITLALPVDNEILLLEIKIEPDPENPNSFKATIELKVFPYNEASAGGSAGG [r6_371_TrMRF] .
upper

Kindly identify the class of SAGGSAGGSAGGSMKTITFTDPAEIAAAIEEAEKEGVEEVVLLTPEGKTRVIPKGVPLPSAGGSAGGSAGGS [r4_260_JUSTAS] .
middle

Kindly identify the class of SAGGMEKIEIEVENEDGEKVKIEIYFDEETGFIVVKIEGENPELIDALKKKLGLEIVEKREDGYLVFKSAGG [r13_937_TrROS_Hall] .
upper

Kindly identify the class of SAPSPKTPETLVFLSEEESEVVEERLSPSGKPFLVKRKRRFLRYRYVDEDGNVTSVGEREEPVEEELVLSAG [r14_934_JUSTAS] .
lower
